Percent inhibition of Factor 11 mRNA at 3,000 nM values, listed per item
- System: human Factor 11 mRNA
- TEST_PROTOCOL: Dose-dependent inhibition of human Factor 11 in HepG2 cells, electroporation 375-12,000 nM (Example 32)
- Format: cell-based
- STUDY_CONDITIONS: electroporation, 3,000 nM, approx. 16 hours, relative to untreated control cells
Strand notation (5' to 3'): a small letter for the sugar, then the base; units joined by * are phosphorothioate-linked, units joined directly phosphodiester-linked; [ ] holds rarer units or linkages, { } end groups; capitals alone tell only the bases. e = 2'-O-(2-methoxyethyl) (MOE); [5mC] = 5-methylcytosine; d = 2'-deoxy (DNA)
MEASURED_METRIC: Percent inhibition of Factor 11 mRNA at 3,000 nM (%)

SUBSTANCE: 449707 (antisense e[5mC]*eA*e[5mC]*eA*dG*dT*dT*dT*d[5mC]*dT*dG*dG*e[5mC]*eA*eG*eG) [compound 449707]
UNIT_OF_MEASURE: %
OBSERVED_RESULT: 73
//
SUBSTANCE: 449709 (antisense eG*e[5mC]*eA*e[5mC]*dA*dG*dT*dT*dT*d[5mC]*dT*dG*dG*d[5mC]*eA*eG*eG*e[5mC]) [compound 449709]
UNIT_OF_MEASURE: %
OBSERVED_RESULT: 87
//
SUBSTANCE: 416850 (antisense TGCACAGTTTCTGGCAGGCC; 5-10-5 gapmer, further chemistry not given here) [compound 416850]
UNIT_OF_MEASURE: %
OBSERVED_RESULT: 87
//
SUBSTANCE: 449711 (antisense eA*e[5mC]*dA*dG*dT*dT*dT*d[5mC]*dT*dG*dG*d[5mC]*eA*eG) [compound 449711]
UNIT_OF_MEASURE: %
OBSERVED_RESULT: 7
//
SUBSTANCE: 445522 (antisense eG*e[5mC]*eA*e[5mC]*eA*dG*dT*dT*dT*d[5mC]*dT*dG*dG*e[5mC]*eA*eG*eG*e[5mC]) [compound 445522]
UNIT_OF_MEASURE: %
OBSERVED_RESULT: 82
//
SUBSTANCE: 449710 (antisense e[5mC]*eA*e[5mC]*dA*dG*dT*dT*dT*d[5mC]*dT*dG*dG*d[5mC]*eA*eG*eG) [compound 449710]
UNIT_OF_MEASURE: %
OBSERVED_RESULT: 70
